# key: entry, value: EC50
# System tested: human M4 muscarinic acetylcholine receptor (Homo sapiens)
# Protocol notes: human FLIPR-based M4 PAM assay (Ca2+ mobilization, CHO-K1 cells with human M4 receptor and Gαqi5)
# Run parameters: acetylcholine at 20% of maximum response, read-out: M4 PAM IP
# Procedure: In a typical experiment the M4 muscarinic acetylcholine receptor modulating activity of the compounds of the present invention was determined in accordance with the following experimental method. […] Next, 10 uL of acetylcholine is added (final concentration calculated so as to achieve 20% of the maximum acetycholine response), and the fluorescence reading is continued for 3.5 min. […]

| Chemical string | Readout unit | EC50 |
| --- | --- | --- |
| Cc1cc2c(nc1N1CCC(Oc3cccnc3)CC1)CNC2=O | nM | 79 |
| CCN1Cc2nc(N3CCC(Oc4ccccc4)CC3)c(C)cc2C1=O | nM | 73 |
| Cc1cc2c(nc1N1CCC(Oc3ccc4c(c3)OCC4)CC1)CNC2=O | nM | 18 |

###

# System tested: human M4 muscarinic acetylcholine receptor (Homo sapiens, UniProt P08173)
# Sequence (P08173 1-479): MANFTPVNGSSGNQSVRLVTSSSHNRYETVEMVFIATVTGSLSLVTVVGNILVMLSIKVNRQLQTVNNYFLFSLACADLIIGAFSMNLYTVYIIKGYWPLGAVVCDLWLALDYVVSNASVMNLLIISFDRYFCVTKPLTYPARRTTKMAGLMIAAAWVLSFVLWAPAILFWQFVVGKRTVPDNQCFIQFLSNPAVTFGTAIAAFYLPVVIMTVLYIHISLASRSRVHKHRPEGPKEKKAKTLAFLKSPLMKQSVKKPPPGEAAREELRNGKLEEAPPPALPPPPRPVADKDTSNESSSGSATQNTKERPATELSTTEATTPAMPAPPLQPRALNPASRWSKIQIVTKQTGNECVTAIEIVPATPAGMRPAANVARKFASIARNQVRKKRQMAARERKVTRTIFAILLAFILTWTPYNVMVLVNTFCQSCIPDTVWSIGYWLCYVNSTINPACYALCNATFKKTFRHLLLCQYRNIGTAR
# Protocol notes: human FLIPR-based M4 PAM assay (Ca2+ mobilization, CHO-K1 cells with human M4 receptor and Gαqi5)
# Run parameters: acetylcholine at 20% of maximum response, read-out: M4 PAM IP
# key: entry, value: EC50

| Molecule | Readout unit | EC50 |
| --- | --- | --- |
| Cc1cc2c(nc1N1CCC(Oc3ccc4c(c3)CCOC4=O)CC1)CNC2=O [Example 121] | nM | 1920 |
| Cc1c(N2CCC(Oc3ccc4c(c3)COC4)CC2)nc2c(c1C)C(=O)N(CC(N)=O)C2 [Example 310A] | nM | 35 |
| Cc1cc2c(nc1N1CC[C@@H](Oc3ccc(F)cc3)[C@@H](F)C1)CN(CCO)C2=O [Example 262] | nM | 43 |
| CCC1(COC2CCN(c3nc4c(cc3C)C(=O)NC4)CC2)CC1 [Example 186] | nM | 77 |
| Cc1cncc(OC2CCN(c3nc4c(cc3C)C(=O)N(C)[C@@H]4CO)CC2)c1 [Example 343] | nM | 55 |
| Cc1cc2c(nc1N1[C@@H]3CC[C@H]1C[C@@H](Oc1cccc(C#N)c1)C3)CNC2=O [Example 95] | nM | 616 |
| Cc1cc2c(nc1N1CCC(Oc3cnc4c(c3)COCC4)CC1)CNC2=O [Example 52] | nM | 238 |
| Cc1cc2c(nc1N1CCC(Oc3ccc4c(c3)OCCN4C)CC1)CNC2=O [Example 293] | nM | 104 |
| COc1ccc(O[C@@H]2CCN(c3nc4c(cc3C)C(=O)NC4)C[C@@H]2C)cn1 [Example 29A] | nM | 63 |
| Cc1cc2c(nc1N1CCC(OCC3CC3)CC1)CNC2=O [Example 9] | nM | 83 |
| Cc1cc2c(nc1N1CCC(Oc3ccccn3)CC1)CNC2=O [Example 131] | nM | 1520 |

###

# key: entry, value: EC50
# System tested: human M4 muscarinic acetylcholine receptor (Homo sapiens)
# Protocol notes: human FLIPR-based M4 PAM assay (Ca2+ mobilization, CHO-K1 cells with human M4 receptor and Gαqi5)
# Run parameters: acetylcholine at 20% of maximum response, read-out: M4 PAM IP
Metric: EC50 (nM)

| Compound | Value reported |
| --- | --- |
| Cc1cccc(OC2CCN(c3nc4c(cc3C)C(=O)NC4)CC2)c1 [Example 78] | 33 |
| Cc1cc2c(nc1N1CCC(OCC3(C)CC3)CC1)CN(C)C2=O [Example 338] | 40 |
| Cc1cc2c(nc1N1CCC(Oc3cnc4c(c3)COC4)CC1)CN(C)C2=O [Example 49] | 94 |
| Cc1c(N2CC[C@@H](Oc3cnn(C)c3)C(F)(F)C2)nc2c(c1C)C(=O)NC2 [Example 336B] | 650 |
| Cc1cc2c(nc1N1CCC(Oc3ccc(N)nc3)CC1)CNC2=O [Example 104] | 60 |
| Cc1cc2c(nc1N1CCC(Oc3ccc(F)cc3)CC1)[C@@H](CO)N(C)C2=O [Example 279] | 30 |
| Cc1c(N2CCC(OC[C@]3(C)CC3(F)F)CC2)nc2c(c1C)C(=O)N(CCO)C2 [Example 265C] | 41 |
| Cc1cc2c(nc1N1CCC(Oc3ccc4c(c3)CS(=O)(=O)C4)CC1)CNC2=O [Example 208A] | 123 |
| Cc1cc2c(nc1N1CCC(Oc3ccc4c(c3)COC4)CC1)CN([C@@H](C)CO)C2=O [Example 268D] | 28 |
| Cc1cc2c(nc1N1CCC(Oc3ccc4c(c3)CC(C)(C)O4)CC1)CNC2=O [Example 321] | 193 |
| Cc1cc2c(nc1N1CCC(Oc3ccc(OC(C)C)nc3)CC1)CNC2=O [Example 62] | 55 |
| CCc1cc2c(nc1N1CCC(Oc3ccc4c(c3)COC4)CC1)[C@@H](CO)N(C)C2=O [Example 351] | 40 |
| COc1cccc(OC2CCN(c3nc4c(cc3C)C(=O)NC4)CC2)c1 [Example 51] | 51 |
| Cc1cc2c(nc1N1CCC(Oc3ccc(C#N)nc3)CC1)CNC2=O [Example 85] | 2620 |
| Cc1c(N2CC[C@@H](Oc3ccc4c(c3)COCC4)[C@@H](F)C2)nc2c(c1C)C(=O)NC2 [Example 194A] | 20 |
| Cc1cc2c(nc1N1CCC(OCC3(C)CC3)CC1)[C@@H](CO)N(C)C2=O [Example 339] | 13 |
| Cc1cc2c(nc1N1CCC(Oc3cccc(C#N)c3)CC1)C(C)N(C)C2=O (centres unmarked) [Example 13] | 174 |
| COC(=O)c1cc2c(nc1N1CCC(Oc3ccc(OC)nc3)CC1)CNC2=O [Example 160] | 231 |
| Cc1cc2c(nc1N1CCC(Oc3ccc(OCCN(C)C)nc3)CC1)CNC2=O [Example 168] | 119 |
| Cc1cc2c(nc1N1CCC(Oc3ccc(OCC(C)(C)N)nc3)CC1)CNC2=O [Example 169] | 183 |

###

# System tested: human M4 muscarinic acetylcholine receptor (Homo sapiens, UniProt P08173)
# Protocol notes: human FLIPR-based M4 PAM assay (Ca2+ mobilization, CHO-K1 cells with human M4 receptor and Gαqi5)
# Run parameters: acetylcholine at 20% of maximum response, read-out: M4 PAM IP
Metric: log10 of EC50 (log10 of the value in nM)

| Compound | log10 of EC50 |
| --- | --- |
| Cc1cc2c(nc1N1CCC(Oc3cnc4c(c3)CCC4)CC1)CNC2=O [Example 59] | 2.09 |
| C=Cc1cc2c(nc1N1CCC(Oc3ccc(OC)nc3)CC1)CNC2=O [Example 222] | 1.70 |
| Cc1cc2c(nc1N1CCC(Oc3cn[nH]c3)CC1)CNC2=O [Example 142] | 2.43 |
| Cc1c(N2CCC(Oc3ccc(F)cc3)CC2)nc2c(c1C)C(=O)N(CCO)C2 [Example 266] | 2.02 |
| Cc1cc2c(nc1N1CCC(Oc3cnn(C)c3)CC1)[C@@H](CO)N(C)C2=O [Example 357] | 1.94 |
| COC(=O)CN1Cc2nc(N3CCC(Oc4ccc(OC)nc4)CC3)c(C)cc2C1=O [Example 260] | 2.15 |
| Cc1cc2c(nc1N1CCC(Oc3cnc4c(c3)NCCO4)CC1)CNC2=O [Example 145] | 3.33 |
| Cc1cc2c(nc1N1CC[C@H](Oc3cccnc3)[C@H](F)C1)CNC2=O (single isomer, unassigned) [Example 165] | 2.67 |
| Cc1cc2c(nc1N1CCC(Oc3cnc4c(c3)oc(=O)n4C)CC1)CNC2=O [Example 136] | 3.54 |
| Cc1c(N2CCC(Oc3ccc4c(c3)COCC4)CC2)nc2c(c1C)C(=O)N(C)[C@@H]2CO (single isomer, unassigned) [Example 337C] | 1.62 |
| Cc1cc2c(nc1N1CCC(OCC(C)(C)C)CC1)CNC2=O [Example 182] | 3.58 |
| Cc1cc2c(nc1N1CCC(Oc3ccnc(C#N)c3)CC1)CNC2=O [Example 93] | 2.97 |
| Cc1cc2c(nc1N1CCC(Oc3ccc4c(cnn4C)c3)CC1)[C@@H](CO)N(C)C2=O [Example 359] | 1.57 |
